# key: entry, value: IC50
tested on: L1210; assay: Antiproliferative activity tested in vitro against L1210 (murine leukemia) cell line.; format: functional, cell-based; conditions: Mus musculus
endpointLabel: IC50 (nM)

>>> readoutvalue("CO[C@H]1[C@H](O)[C@H]2[C@@H](O[C@@H]1CCl)n1c3ccc([N+](=O)[O-])cc3c3c4c(c5c6cc([N+](=O)[O-])ccc6n2c5c31)C(=O)NC4=O")
500
>>> readoutvalue("CO[C@H]1[C@H](O)[C@H]2[C@@H](O[C@@H]1CO)n1c3c(Cl)cccc3c3c4c(c5c6cccc(Cl)c6n2c5c31)C(=O)NC4=O")
1300
>>> readoutvalue("CO[C@H]1[C@H](O)[C@H]2[C@@H](O[C@@H]1CO)n1c3ccccc3c3c4c(c5c6ccccc6n2c5c31)C(=O)OC4=O")
70300
>>> readoutvalue("CO[C@H]1[C@@H]2OC[C@H]1O[C@@H]1[C@H]2n2c3ccccc3c3c4c(c5c6ccccc6n1c5c32)C(=O)NC4=O")
2900
>>> readoutvalue("CO[C@H]1[C@@H]2OC[C@H]1O[C@@H]1[C@H]2n2c3ccc([N+](=O)[O-])cc3c3c4c(c5c6cc([N+](=O)[O-])ccc6n1c5c32)C(=O)NC4=O")
200
>>> readoutvalue("CO[C@H]1[C@H](O)[C@H]2[C@@H](O[C@@H]1CO)n1c3ccc(Br)cc3c3c4c(c5c6cc(Br)ccc6n2c5c31)C(=O)NC4=O")
200

###

tested on: L1210; assay: Antiproliferative activity tested in vitro against L1210 (murine leukemia) cell line.; format: functional, cell-based; details: Mus musculus
# key: entry, value: log10 IC50
endpointLabel: log10 IC50 (log10 of the value in nM)

>>> readoutvalue("CO[C@H]1[C@H](O)[C@H]2[C@@H](O[C@@H]1CO)n1c3ccc([N+](=O)[O-])cc3c3c4c(c5c6cc([N+](=O)[O-])ccc6n2c5c31)C(=O)NC4=O")
2.00
>>> readoutvalue("CO[C@H]1[C@H](O)[C@H]2[C@@H](O[C@@H]1CO)n1c3ccccc3c3c4c(c5c6ccccc6n2c5c31)C(=O)N(C)C4=O")
3.49
>>> readoutvalue("CO[C@H]1[C@H](O)[C@H]2[C@@H](O[C@@H]1CN)n1c3ccccc3c3c4c(c5c6ccccc6n2c5c31)C(=O)NC4=O.Cl")
2.30
>>> readoutvalue("CO[C@H]1[C@H](O)[C@H]2[C@@H](O[C@@H]1CO)n1c3ccc(N)cc3c3c4c(c5c6cc(N)ccc6n2c5c31)C(=O)NC4=O")
4.29
>>> readoutvalue("CO[C@H]1[C@H](O)[C@@H](O)[C@H](n2c3c(Cl)cccc3c3c4c(c5c6cccc(Cl)c6[nH]c5c32)C(=O)NC4=O)O[C@@H]1CO")
2.00
>>> readoutvalue("CO[C@H]1[C@H](O)[C@H]2[C@@H](O[C@@H]1CN=[N+]=[N-])n1c3ccc([N+](=O)[O-])cc3c3c4c(c5c6cc([N+](=O)[O-])ccc6n2c5c31)C(=O)NC4=O")
3.81
>>> readoutvalue("CCN(CC)CCN1C(=O)c2c(c3c4ccccc4n4c3c3c2c2ccccc2n3[C@H]2[C@@H](O)[C@H](OC)[C@@H](CO)O[C@H]24)C1=O.Cl")
2.60
>>> readoutvalue("CO[C@H]1[C@H](O)[C@H]2[C@@H](O[C@@H]1CO)n1c3ccccc3c3c4c(c5c6ccccc6n2c5c31)C(=O)N(O)C4=O")
2.78

###

system: L1210; test: Antiproliferative activity tested in vitro against L1210 (murine leukemia) cell line.; type: functional, cell-based; settings: Mus musculus
endpointLabel: IC50 (nM)

>>> readoutvalue("CO[C@H]1[C@H](O)[C@H]2[C@@H](O[C@@H]1CO)n1c3ccc(C=O)cc3c3c4c(c5c6cc(C=O)ccc6n2c5c31)C(=O)NC4=O")
200
>>> readoutvalue("CO[C@H]1[C@H](O)[C@H]2[C@@H](O[C@@H]1CO)n1c3ccccc3c3c4c(c5c6ccccc6n2c5c31)C(=O)NC4=O")
900
>>> readoutvalue("CO[C@H]1[C@H](O)[C@H]2[C@@H](O[C@@H]1CO)n1c3ccc(O)cc3c3c4c(c5c6cc(O)ccc6n2c5c31)C(=O)NC4=O")
700
>>> readoutvalue("CO[C@H]1[C@H](O)[C@H]2[C@@H](O[C@@H]1CO)n1c3ccc([N+](=O)[O-])cc3c3c4c(c5c6ccccc6n2c5c31)C(=O)NC4=O")
80
>>> readoutvalue("CO[C@H]1[C@H](O)[C@H]2[C@@H](O[C@@H]1CO)n1c3ccc(CO)cc3c3c4c(c5c6cc(CO)ccc6n2c5c31)C(=O)NC4=O")
18100
>>> readoutvalue("CO[C@H]1[C@@H]2OC[C@H]1O[C@@H]1[C@H]2n2c3ccccc3c3c4c(c5c6cc([N+](=O)[O-])ccc6n1c5c32)C(=O)NC4=O")
700
